Each recorded value in this set is attributed to ChEMBL document CHEMBL4041539.

Test system: A549
Test: Growth inhibition of human A549 cells after 48 hrs by MTT assay
Assay type: functional, cell-based
Conditions: A549, 48 h
pIC50: −log10 of the molar value.
Returns one of Fulfilled or Not fulfilled; Fulfilled when pIC50 is >= 5.

Below, 4 molecules whose answers are already recorded.
{"columns": ["molecule", "class-assignment"],
 "data": [
  ["CS(=O)(=O)Nc1ccc([N+](=O)[O-])cc1Oc1ccccc1 [NIMESULIDE]", "Not fulfilled"],
  ["Cc1cc(OCc2cn(-c3ccc(NS(C)(=O)=O)c(Oc4ccccc4)c3)nn2)ccc1Cl", "Fulfilled"],
  ["CS(=O)(=O)Nc1ccc(-n2cc(COc3ccc([N+](=O)[O-])cc3)nn2)cc1Oc1ccccc1", "Fulfilled"],
  ["CS(=O)(=O)Nc1ccc(-n2cc(COc3ccc(Cl)cc3)nn2)cc1Oc1ccccc1", "Fulfilled"]
]}

Enquiry: Kindly determine if pIC50 recorded for CS(=O)(=O)Nc1ccc(-n2cc(-c3ccccc3)nn2)cc1Oc1ccccc1 is above or exactly 5.
Return: Not fulfilled

Enquiry: Is reported pIC50 greater than or equal to 5 here: CS(=O)(=O)Nc1ccc(-n2cc(COc3ccccc3Cl)nn2)cc1Oc1ccccc1
Return: Not fulfilled

====

Target: 3',5'-cyclic-AMP phosphodiesterase 4B (Homo sapiens) (UniProt Q07343)
Sequence (Q07343 whole entry): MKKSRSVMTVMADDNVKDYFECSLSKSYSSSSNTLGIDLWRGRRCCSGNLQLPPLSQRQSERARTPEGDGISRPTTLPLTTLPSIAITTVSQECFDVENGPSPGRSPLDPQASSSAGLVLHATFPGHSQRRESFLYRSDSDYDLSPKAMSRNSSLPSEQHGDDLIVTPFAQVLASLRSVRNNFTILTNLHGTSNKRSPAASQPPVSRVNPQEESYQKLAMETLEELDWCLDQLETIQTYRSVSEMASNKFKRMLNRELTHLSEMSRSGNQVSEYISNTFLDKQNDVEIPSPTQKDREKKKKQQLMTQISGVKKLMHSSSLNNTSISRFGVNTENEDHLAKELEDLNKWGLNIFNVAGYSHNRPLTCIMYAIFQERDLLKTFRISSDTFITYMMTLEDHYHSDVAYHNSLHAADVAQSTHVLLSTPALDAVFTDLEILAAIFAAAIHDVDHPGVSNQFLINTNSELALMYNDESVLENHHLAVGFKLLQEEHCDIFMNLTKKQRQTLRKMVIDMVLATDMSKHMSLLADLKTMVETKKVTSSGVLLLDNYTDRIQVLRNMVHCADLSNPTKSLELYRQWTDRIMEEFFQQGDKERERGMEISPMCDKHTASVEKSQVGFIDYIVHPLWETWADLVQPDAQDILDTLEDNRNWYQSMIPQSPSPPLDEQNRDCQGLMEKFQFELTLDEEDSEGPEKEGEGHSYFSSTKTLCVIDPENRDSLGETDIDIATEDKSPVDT
Assay: Inhibition of recombinant His-tagged PDE4B1 (unknown origin) expressed in baculovirus infected sf9 cells at 10 uM using cAMP as substrate preincubated for 15 mins followed by cAMP addition measured after 1 hr by PDE light HTS assay relative to control
quantity: inhibition (%)
The reply should contain only the number, in %.

Below, 2 compounds whose answers are already recorded.
{"columns": ["compound", "study-system", "inhibition / %"],
 "data": [
  ["CS(=O)(=O)Nc1ccc(-n2cc(COc3ccc(Cl)cc3)nn2)cc1Oc1ccccc1", "3',5'-cyclic-AMP phosphodiesterase 4B (Homo sapiens) (UniProt Q07343)", 62.8],
  ["CS(=O)(=O)Nc1ccc(-n2cc(COc3ccc([N+](=O)[O-])cc3)nn2)cc1Oc1ccccc1", "3',5'-cyclic-AMP phosphodiesterase 4B (Homo sapiens) (UniProt Q07343)", 70.2]
]}

inhibition reported for this compound Cc1cc(OCc2cn(-c3ccc(NS(C)(=O)=O)c(Oc4ccccc4)c3)nn2)ccc1Cl : 67.5

Recorded result, CS(=O)(=O)Nc1ccc([N+](=O)[O-])cc1Oc1ccccc1 [NIMESULIDE] , inhibition: 52

====

System: HeLa
Assay: Growth inhibition of human HeLa cells after 48 hrs by MTT assay
Format: functional, cell-based
pIC50 for assorted compounds
# log scale: pIC50 equals minus log10 of the concentration in mol/L

Example cases with answers are listed next.
{"columns": ["smiles-repr", "pIC50"],
 "data": [
  ["Cc1ccc(OCc2cn(-c3ccc(NS(C)(=O)=O)c(Oc4ccccc4)c3)nn2)cc1", 4.80],
  ["CS(=O)(=O)Nc1ccc(-n2cc(COc3ccc4ccccc4c3)nn2)cc1Oc1ccccc1", 4.89],
  ["CS(=O)(=O)Nc1ccc(-n2cc(-c3ccccc3)nn2)cc1Oc1ccccc1", 4.66],
  ["CS(=O)(=O)Nc1ccc(-n2cc(COc3ccccc3Cl)nn2)cc1Oc1ccccc1", 4.41],
  ["Cc1cc(OCc2cn(-c3ccc(NS(C)(=O)=O)c(Oc4ccccc4)c3)nn2)ccc1Cl", 5.10]
]}

With those in mind, consider the next compound.
Notebook: CS(=O)(=O)Nc1ccc(-n2cc(COc3ccc(Cl)cc3)nn2)cc1Oc1ccccc1 , pIC50 read as 5.11
